system: CEM cells HIV-1 protection, formazan growth assay; test: NCI AIDS Antiviral Assay; conditions: measured here: growth of uninfected CEM cells

| Compound | IC50 |
| --- | --- |
| COc1ccc(S(=O)(=O)N/N=C/CN2C(=O)c3ccccc3C2=O)cc1OC | > 64.6 µM |
| CC(=O)Oc1ccc(-c2oc3c([C@H]4C=C(C)CC(c5ccc(OC(C)=O)cc5OC(C)=O)[C@@H]4C(=O)c4ccc(OC(C)=O)c(CC=C(C)C)c4O)c(OC(C)=O)cc(O)c3c(=O)c2CC=C(C)C)c(OC(C)=O)c1 (stereo partly specified) | > 5.13 µM |
| [N-]=[N+]=CC(=O)OC(CCl)CCl | > 200 µM |
| Cn1c(=O)ccc2ccc(N(CCO)CCO)nc21 | > 200 µM |
| O=c1cc(-c2ccccc2)oc2cc(OCC(O)COc3ccc4c(=O)cc(-c5ccccc5)oc4c3)ccc12 | > 25.7 µM |
| Cn1nc2ccc3nccc(NCCNCCCl)c3c2n1 | > 1.17 µM |
